Cited source: patent US20230263916A1

assay_target: T1, human Her2 (ECD)-Fc protein (human, UniProt P04626 23-652)
T1 construct: extracellular domain; Made in HEK293F cells; also called hHer2 (ECD)-Fc antigen; Her2 (ECD)-Fc antigen; not shown: TEV restriction site at the C-terminal of hHer2 (ECD); IgG1 Fc of the pFUSE-IgG1 vector
protocol_details: PE-ELISA, A405 of antigen well over control well
Classify by measured Ratio(+/-): 1 (yes) if it is equal to or exceeds 20, 0 (no) if it is smaller.

Quick check: does Nanobody No. 35 (VHH, also called 35; not shown: tags (HA, His) implied by anti-HA detection and nickel column) VHH: QVQLQESGGGLVQPGGSLRLSCAASGFTFDDVDMGWYRQAPGNECELVSTISSDGSTYYADSVKGRFTISQDNAKNTVYLQMNSLKPEDTAMYYCAAARYSDYEGMCGYWSQGTQVTVSS have Ratio(+/-) greater than or equal to 20?
1 (yes)

Quick check: does Nanobody No. 33 (VHH, also called 33; not shown: tags (HA, His) implied by anti-HA detection and nickel column) VHH: QVQLQESGGGSVQAGGSLRLSCTASGFTFDDVDMGWYRQAPGNECELVSTISSDGSTYYADSVKGRFTISQDNAKNTVYLQMNSLKPEDTAMYYCAAARYSDYEGMCGYWSQGTQVTVSS have Ratio(+/-) greater than or equal to 20?
1 (yes)
